These entries and their values trace back to patent US8541411B2.

# Target under test: PI3Kβ (Homo sapiens, UniProt P42338)
# Construct: made in house
# Sequence (P42338 whole entry): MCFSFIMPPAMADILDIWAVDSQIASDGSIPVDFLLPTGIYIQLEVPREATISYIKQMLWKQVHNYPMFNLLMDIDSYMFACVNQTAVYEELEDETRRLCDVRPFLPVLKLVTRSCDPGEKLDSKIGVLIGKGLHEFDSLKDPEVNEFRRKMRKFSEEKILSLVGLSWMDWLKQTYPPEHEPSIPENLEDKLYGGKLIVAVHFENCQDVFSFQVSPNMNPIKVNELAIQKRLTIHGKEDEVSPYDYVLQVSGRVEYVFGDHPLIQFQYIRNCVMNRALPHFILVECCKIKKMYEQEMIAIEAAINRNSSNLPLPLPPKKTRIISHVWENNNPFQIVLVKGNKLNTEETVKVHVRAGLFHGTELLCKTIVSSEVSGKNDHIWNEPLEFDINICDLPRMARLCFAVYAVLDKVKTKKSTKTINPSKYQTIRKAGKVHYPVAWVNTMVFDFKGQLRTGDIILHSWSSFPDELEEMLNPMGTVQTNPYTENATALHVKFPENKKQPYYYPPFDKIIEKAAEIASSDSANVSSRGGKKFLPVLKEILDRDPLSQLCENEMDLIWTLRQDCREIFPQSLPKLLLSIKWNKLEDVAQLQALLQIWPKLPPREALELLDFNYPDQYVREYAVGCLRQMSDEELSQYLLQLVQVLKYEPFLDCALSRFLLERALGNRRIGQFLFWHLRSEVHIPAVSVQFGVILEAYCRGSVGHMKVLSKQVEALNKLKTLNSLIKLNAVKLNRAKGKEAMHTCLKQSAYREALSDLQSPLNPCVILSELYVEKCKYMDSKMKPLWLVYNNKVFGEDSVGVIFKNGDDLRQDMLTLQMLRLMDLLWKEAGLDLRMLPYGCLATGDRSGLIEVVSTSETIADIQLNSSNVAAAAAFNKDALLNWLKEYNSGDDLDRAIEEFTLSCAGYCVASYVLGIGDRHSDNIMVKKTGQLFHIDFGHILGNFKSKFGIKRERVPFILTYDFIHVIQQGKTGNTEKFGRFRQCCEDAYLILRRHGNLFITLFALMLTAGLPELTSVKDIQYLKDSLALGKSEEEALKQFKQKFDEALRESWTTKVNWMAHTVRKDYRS
# Sequence (P27986 whole entry partner): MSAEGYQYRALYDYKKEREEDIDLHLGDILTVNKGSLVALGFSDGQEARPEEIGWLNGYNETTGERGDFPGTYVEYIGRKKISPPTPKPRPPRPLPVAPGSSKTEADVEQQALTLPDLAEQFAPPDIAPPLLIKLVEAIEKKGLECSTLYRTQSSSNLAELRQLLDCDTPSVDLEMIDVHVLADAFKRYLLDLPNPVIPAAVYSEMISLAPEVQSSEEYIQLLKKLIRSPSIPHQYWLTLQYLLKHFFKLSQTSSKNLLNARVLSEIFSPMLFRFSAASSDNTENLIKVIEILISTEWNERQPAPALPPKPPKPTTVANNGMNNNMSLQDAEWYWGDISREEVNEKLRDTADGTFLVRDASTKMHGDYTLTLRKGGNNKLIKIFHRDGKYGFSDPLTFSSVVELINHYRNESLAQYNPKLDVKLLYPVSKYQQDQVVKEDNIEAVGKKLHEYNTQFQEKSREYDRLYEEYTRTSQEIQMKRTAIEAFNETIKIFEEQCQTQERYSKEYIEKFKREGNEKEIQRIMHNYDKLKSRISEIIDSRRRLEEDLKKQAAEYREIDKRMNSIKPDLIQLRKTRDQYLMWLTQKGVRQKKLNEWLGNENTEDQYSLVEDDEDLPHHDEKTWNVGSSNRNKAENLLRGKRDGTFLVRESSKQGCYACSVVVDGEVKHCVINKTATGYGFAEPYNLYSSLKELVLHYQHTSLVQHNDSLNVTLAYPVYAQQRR
# Experiment summary: HTRF in vitro profiling assay for PI3K inhibition, beta isoform
# Type: biochemical
# Reported conditions: one experimental run or average of two or more runs; 200 pM enzyme, 100 uM ATP, 10 uM PIP2; read-out: P13KB PIC50 MEAN (converted)
Item-by-item account of log10(IC50)
Measured quantity: log10(IC50) (log10 of the value in nM)

[
  {
    "Mol": "Cc1c(Cn2c(C)nc3c(-c4nnc[nH]4)cc(N4CCOCC4)cc32)cccc1C(F)(F)F",
    "log10(IC50)": -0.20
  },
  {
    "Mol": "Cc1c(Cn2c(C)nc3c(CO)cc(N4CCOCC4)cc32)cccc1C(F)(F)F",
    "log10(IC50)": 0.70
  },
  {
    "Mol": "Cc1nc2c(C(=O)O)cc(N3CCOCC3)cc2n1Cc1ccc(Cl)c(Cl)c1",
    "log10(IC50)": 2.00
  },
  {
    "Mol": "CCc1nc2c(O)cc(N3CCOCC3)cc2n1Cc1cccc(Cl)c1Cl",
    "log10(IC50)": 0.50
  },
  {
    "Mol": "Cc1c(Cl)cccc1Cn1c(C(F)(F)F)nc2c(C(=O)O)cc(N3CCOCC3)cc21",
    "log10(IC50)": -0.30
  },
  {
    "Mol": "CCc1nc2c(F)cc(N3CCOCC3)cc2n1Cc1cccc2ccccc12",
    "log10(IC50)": 0.40
  },
  {
    "Mol": "Cc1nc2c(C#N)cc(N3CCOCC3)cc2n1Cc1cccc(Cl)c1Cl",
    "log10(IC50)": 1.10
  },
  {
    "Mol": "Cc1nc2c(-c3nnc[nH]3)cc(N3CCOCC3)cc2n1Cc1cccc2ccccc12",
    "log10(IC50)": -0.60
  },
  {
    "Mol": "CC(C)c1nc2c(O)cc(N3CCOCC3)cc2n1Cc1cccc(Cl)c1Cl",
    "log10(IC50)": 0.90
  },
  {
    "Mol": "Cc1c(Cn2c(C(F)(F)F)nc3c(C(N)=O)cc(N4CCOCC4)cc32)cccc1C(F)(F)F",
    "log10(IC50)": 0.40
  },
  {
    "Mol": "Cc1c(Cl)cccc1Cn1c(C)nc2c(C(=O)O)cc(N3CCOCC3)cc21",
    "log10(IC50)": 0.80
  },
  {
    "Mol": "CC(=O)c1cc(N2CCOCC2)cc2c1nc(C)n2Cc1cccc2ccccc12",
    "log10(IC50)": 0.20
  },
  {
    "Mol": "Cc1nc2c(C(=O)O)cc(N3CCOCC3)cc2n1Cc1cccc(Cl)c1Cl",
    "log10(IC50)": 1.20
  },
  {
    "Mol": "Cc1nc2c(-c3nnn[nH]3)cc(N3CCOCC3)cc2n1Cc1cccc2ccccc12",
    "log10(IC50)": 0.80
  },
  {
    "Mol": "Cc1nc2c(C(=O)O)cc(N3CCOCC3)cc2n1Cc1cccc2cccnc12",
    "log10(IC50)": 1.80
  },
  {
    "Mol": "CCc1nc2c(F)cc(N3CCOCC3)cc2n1Cc1cccc(Cl)c1Cl",
    "log10(IC50)": 1.00
  },
  {
    "Mol": "Cc1nc2c(C(=O)O)cc(N3CCOCC3)cc2n1Cc1cccc2ccsc12",
    "log10(IC50)": 1.40
  },
  {
    "Mol": "CC(C)c1nc2c(O)cc(N3CCOCC3)cc2n1Cc1cccc2ccccc12",
    "log10(IC50)": 0.30
  }
]
